molecular target: human farnesyl transferase (Homo sapiens, UniProt P49354+P49356); construct: human farnesyl transferase purified from THP1 cell cultures; endogenous in cells; host or cells: THP1 cell cultures (enzyme purified from the cells); assay: inhibition of farnesyl transferase ((3H) farnesyl transfer from (3H) FPP to p21 H-ras); type: biochemical; conditions: human farnesyl transferase purified from THP1 cell cultures; p21 H-ras substrate; 20 minutes at 37° C.; 9 concentrations; read-out: in vitro inhibitory activity IC50
IC50 listing for selected compounds.
The answer consists of two parts: a number and, after it, its unit.

Below: 3 compounds and their reported IC50.
So what's the measured IC50 for this one? COc1ccccc1CC(=O)N1C[C@H]2[C@@]3(c4ccccc4)CC[C@H](c4ccccc43)[C@@]2(C(=O)NCC(=O)O)C1 [Example 48]
0.74 µM

So what's the measured IC50 for this one? `C=C(C(=O)N1C[C@H]2[C@@]3(c4ccccc4)CC[C@H](c4ccccc43)[C@@]2(C(=O)N[C@H](C)c2cccc3ccccc23)C1)c1ccccc1OC`
5.15 µM

So what's the measured IC50 for this one? COc1ccccc1CC(=O)N1C[C@H]2[C@@]3(c4ccccc4)CC[C@H](c4ccccc43)[C@@]2(CC(=O)O)C1 (relative stereo)
5.6 µM

Others:
So what's the measured IC50 for this one? COc1ccccc1CC(=O)N1C[C@H]2[C@@]3(c4ccccc4)CC[C@H](c4ccccc43)[C@@]2(C(=O)NC(CCC(=O)O)C(=O)O)C1 (some centres unmarked)
0.58 µM

So what's the measured IC50 for this one? `COc1ccccc1CC(=O)N1C[C@H]2[C@@]3(c4ccccc4)CC[C@H](c4ccccc43)[C@@]2(C(=O)N[C@H](C)c2ccccc2)C1`
0.86 µM
